biological target: PLA2 obtained from cobra venom (N. naja naja) (Naja naja); type: biochemical
Sequence (P15445 whole entry, looked up): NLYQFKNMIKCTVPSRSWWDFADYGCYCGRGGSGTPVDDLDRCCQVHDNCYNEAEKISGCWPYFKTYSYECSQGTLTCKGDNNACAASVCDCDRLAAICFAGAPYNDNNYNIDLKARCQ
MEASUREMENT_TYPE: V, initial velocity for release of p-nitrophenol (µmol/min/mg)
Answer in µmol/min/mg, number only, no unit symbol.

Field: example entries. Status: answers known.
CCCCCCCCCC(=O)OC[C@H](COP(=O)([O-])OCC[N+](C)(C)C)OC(=O)CCC(=O)Oc1ccc([N+](=O)[O-])cc1 [1d]; 0.6
CCCCCCCCCC(=O)OC[C@H](COP(=O)([O-])OCC[N+](C)(C)C)OC(=O)CCCC(=O)Oc1ccc([N+](=O)[O-])cc1 [compound 1a]; 155
CCCCCCCCCC(=O)OC[C@H](COP(=O)([O-])OCC[N+](C)(C)C)OC(=O)CC(C)(C)C(=O)Oc1ccc([N+](=O)[O-])cc1 [1e]; 0.005

Problem: Return V, initial velocity for release of p-nitrophenol for the following compound: CCCCCCCCCC(=O)OC[C@H](COP(=O)([O-])OCC[N+](C)(C)C)OC(=O)CCC(C)(C)C(=O)Oc1ccc([N+](=O)[O-])cc1 [compound 1b]
Solution: 0.11

Problem: Return V, initial velocity for release of p-nitrophenol for the following compound: CCCCCCCCCC(=O)OC[C@H](COP(=O)([O-])OCC[N+](C)(C)C)OC(=O)CC(C)(C)CC(=O)Oc1ccc([N+](=O)[O-])cc1 [1c]
Solution: 0.002
